Exercise: state measured Emax for each of the compounds provided.
Molecular target: androgen receptor (Homo sapiens)
Sequence (P10275 whole entry, species assumed): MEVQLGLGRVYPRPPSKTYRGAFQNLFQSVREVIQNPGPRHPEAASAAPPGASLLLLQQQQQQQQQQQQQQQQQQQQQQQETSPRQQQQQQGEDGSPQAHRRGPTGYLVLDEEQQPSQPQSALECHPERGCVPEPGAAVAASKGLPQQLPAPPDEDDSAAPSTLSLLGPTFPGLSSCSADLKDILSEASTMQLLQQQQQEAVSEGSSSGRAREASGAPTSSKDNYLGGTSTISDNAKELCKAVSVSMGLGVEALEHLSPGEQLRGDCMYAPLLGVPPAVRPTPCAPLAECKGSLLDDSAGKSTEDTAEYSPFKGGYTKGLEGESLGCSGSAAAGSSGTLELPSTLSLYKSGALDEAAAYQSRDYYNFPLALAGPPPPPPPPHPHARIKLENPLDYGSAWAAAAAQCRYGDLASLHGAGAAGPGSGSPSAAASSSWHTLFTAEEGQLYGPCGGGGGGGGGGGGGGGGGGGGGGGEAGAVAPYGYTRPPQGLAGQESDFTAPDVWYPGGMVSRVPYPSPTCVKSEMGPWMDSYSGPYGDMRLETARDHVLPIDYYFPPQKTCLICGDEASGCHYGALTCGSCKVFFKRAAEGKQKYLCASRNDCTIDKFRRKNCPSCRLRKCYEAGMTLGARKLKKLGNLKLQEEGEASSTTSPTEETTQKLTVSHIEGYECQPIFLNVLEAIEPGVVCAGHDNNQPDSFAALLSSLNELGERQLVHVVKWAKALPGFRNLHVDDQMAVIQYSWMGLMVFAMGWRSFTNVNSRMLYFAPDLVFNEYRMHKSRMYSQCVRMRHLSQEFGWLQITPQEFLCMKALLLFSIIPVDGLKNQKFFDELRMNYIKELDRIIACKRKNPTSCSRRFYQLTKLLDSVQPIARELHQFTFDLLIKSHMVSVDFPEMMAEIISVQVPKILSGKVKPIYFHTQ
Assay: Androgenic/antiandrogenic action by transactivation test (PC3 reporter cells)
Format: cell-based
Set-up: expressed in transfected cells; host or cells: PC3 cells
Conditions: PC-3, read-out: Androgen receptor Antagonism efficacy
Protocol: The test compounds were added eight hours later, and the cells were incubated with the compounds for 16 hours. The tests were carried out in triplicate. […] After luciferase assay substrate (Promega, #E1501) had been added, the 96-well plates were then put in a microplate luminometer (Pherastar, BMG Labtech), and the luminescence was measured. The IC50 values were evaluated using software for calculating dose-effect relations. […]
Answers are plain numbers, in %.

Worked set:
[[record]]
compound = "C[C@]12CC[C@H]3[C@H]([C@@H]1[C@H]1C[C@H]1[C@@]21C=CC(=O)O1)[C@H](C1CC1)CC1=CC(=O)CC[C@@H]13 [Example 17A]"
system = "androgen receptor (Homo sapiens)"
meas_value = 33.7

[[record]]
compound = "CC[C@]12CC[C@H]3[C@@H]([C@H]4C[C@H]4C4=C(Cl)C(=O)CC[C@@H]43)[C@@H]1[C@@H]1C[C@@H]1[C@@]21C=CC(=O)O1"
system = "androgen receptor (Homo sapiens)"
meas_value = 22.9

[[record]]
compound = "C[C@]12CC[C@H]3[C@@H](CCC4=CC(=O)CC[C@@H]43)[C@@H]1[C@@H]1C[C@@H]1[C@@]21C=CC(=O)O1"
system = "androgen receptor (Homo sapiens)"
meas_value = 5

[[record]]
compound = "C[C@]12CC[C@H]3[C@@H](CCC4=C(Cl)C(=O)CC[C@@H]43)[C@@H]1[C@@H]1C[C@@H]1[C@@]21C=CC(=O)O1"
system = "androgen receptor (Homo sapiens)"
meas_value = 5


Shift focus to the following entry.
q: What value of measured Emax is listed for C=C[C@@H]1CC2=CC(=O)CC[C@@H]2[C@H]2CC[C@@]3(C)[C@@H]([C@@H]4C[C@@H]4[C@@]34C=CC(=O)O4)[C@@H]21 [Example 25A] ?
a: 5
